# Test system: U87-MG spheroids
# procedure details: High throughput kinetic oxygen screen of FDA-approved anticancer drugs on U87-MG micro-tumors with embedded oxygen sensors, 384-well plate
# Format: cell-based, human
# conditions used: 5 μM; U87-MG cells embedded in collagen gel or basement membrane gel
Numbered stars: 1 amine (or outer) side, 2 acyl side, 3 side chain; on linkers, the order of the positions; unused ones are H or OH. Bridge positions count the residues as written; N and C are the ends. Square brackets hold non-standard residues; d marks the D form. Peptide text beside a SMILES is read from it. I, II: the chains in the order shown. Actinocin(9to1) = Cc1c2oc3c(C)ccc(C(=O)[*:1])c3nc-2c(C(=O)[*:2])c(N)c1=O; NMeV = CN[C@H](C(=O)O)C(C)C; Sar = CNCC(=O)O
quantity: type of response in kinetic oxygen measurement (positive, false negative, false positive)

[ask] Please report the recorded type of response in kinetic oxygen measurement (positive, false negative, false positive) for COC(=O)C[C@](O)(CCCC(C)(C)O)C(=O)O[C@@H]1C(OC)=C[C@]23CCCN2CCc2cc4c(cc2[C@H]13)OCO4 [Omacetaxine mepesuccinate] .
[reply] positive

[ask] Field entry: Cc1c(C(=O)Nc2ccc(N3C[C@@H](C)O[C@@H](C)C3)nc2)cccc1-c1ccc(OC(F)(F)F)cc1
[reply] false positive

[ask] Field entry: CC(C)C[C@H](NC(=O)[C@H](Cc1ccccc1)NC(=O)c1cnccn1)B(O)O
[reply] positive

[ask] Field entry: Cc1c2oc3c(C)ccc(C(=O)N[C@@H]4C(=O)N[C@H](C(C)C)C(=O)N5CCC[C@H]5C(=O)N(C)CC(=O)N(C)[C@@H](C(C)C)C(=O)O[C@@H]4C)c3nc-2c(C(=O)N[C@@H]2C(=O)N[C@H](C(C)C)C(=O)N3CCC[C@H]3C(=O)N(C)CC(=O)N(C)[C@@H](C(C)C)C(=O)O[C@@H]2C)c(N)c1=O [Dactinomycin] (I: T[dV]P[Sar][NMeV] / II: T[dV]P[Sar][NMeV]; ester I:1-I:C, II:1-II:C; linker I:N-II:N via Actinocin(9to1))
[reply] false positive
